Entry source: PubChem BioAssay (NCI)

experiment-description: NCI Yeast Anticancer Drug Screen. Data for the sgs1 strain (AID 173);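 note: 0% = growth of vehicle-only control cultures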
condition-details: S. cerevisiae sgs1 mutant, at 100.0 µM, active compounds read high
Compounds without any hit were thinned out: in the full panel of roughly 79,000, 15% have a hit.
Overview of reported growth inhibition across a group of compounds:
The figure you give is taken to be in %; do not add the unit.

As a guide, the following entries are already answered.
{"compound": "O=C1OC2C(O1)C1(Cl)C(Cl)=C(Cl)C2(Cl)C1(Cl)Cl (stereo unspecified)", "unit": "%", "growth inhibition": 1}
{"compound": "COC(=O)C1=C(C(=O)OC)C2OC1c1cc3ccccc3cc12", "unit": "%", "growth inhibition": 99}
{"compound": "CC(Cc1ccccc1)N(C)Cc1nc(C2CCC([N+](=O)[O-])O2)no1 (stereo unspecified)", "unit": "%", "growth inhibition": 67}

Lookup: growth inhibition for O=Cc1ccc(C(F)(F)F)cc1.[C-]#[O+].[C-]#[O+].[C-]#[O+].[Cr] ?
Found: 64

Lookup: growth inhibition for COc1ccc(/C=C(/C)[N+](=O)[O-])cc1 ?
Found: 98

Lookup: growth inhibition for CC1=C(N2CC2)C(=O)c2ccccc2C1=O ?
Found: 96

Lookup: growth inhibition for O=C(NNC(=O)OCC(Cl)(Cl)Cl)OCC(Cl)(Cl)Cl ?
Found: 97

Lookup: growth inhibition for C[C@@]12CCC(=O)C=C1CC[C@H]1C2=CC[C@]2(C)C1CC[C@@]2(C)O (stereo partly specified) ?
Found: 91

Lookup: growth inhibition for Cc1ccc2c(c1)C1(C)c3cc(C)ccc3SP1S2 (stereo unspecified) ?
Found: 51

Lookup: growth inhibition for CCS(=O)(=O)[O][Sn]([CH2]C)([CH2]C)[O]S(=O)(=O)CC ?
Found: 51

Lookup: growth inhibition for BrCC[N+]12CC[N+](CCBr)(CC1)C2 ?
Found: 89
